molecular target: T1, EGFR on cells (human, UniProt P00533); assay: flow cytometry, HepG2 cells (c-MET+ EGFR+)
T1 construct: endogenous receptor on the cell surface; for A549 cells m5 is used; also called on NCI-H441, EBC-1, A431, MKN-45, HepG2 or T47D cells (cell line under assay)
MEASURED_METRIC: MFI at 100 nM
Write no unit; give the number alone.

IN: Item oa225-M (antibody, V domains shown, one-armed (monovalent) anti-EGFR SEED molecule) VH: EVQLVQSGAEVKKPGASVKVSCKASGFSLTNYGVHWMRQAPGQGLEWIGVIWSGGNTDYNTPFTSRVTITSDKSTSTAYMELSSLRSEDTAVYYCARALTYYDYEFAYWGQGTLVTVSS VL: DIQMTQSPSSLSASVGDRVTITCRASQSIGTNIHWYQQKPGKAPKLLIKYASESISGVPSRFSGSGYGTDFTLTISSLQPEDVATYYCQQNYNWPTTFGQGTKVEIK has what recorded MFI at 100 nM?
OUT: 40
